All values here come from the supplement of paper PMC7156485.

Tested on: HCC1569;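 note: TDF denotes transformed human dermal fibroblasts of mesenchymal origin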
Assay: cell number relative to DMSO (% of DMSO); higher = more cells (less growth inhibition / toxicity)
Conditions: concentration: 10 µM; 24 h
Provide the recorded cell number for the entries that follow.
Just the number, please, no unit attached.

// query Consider the compound COc1ccc2c(c1OC)C(=O)OC2C1c2c(cc3c(c2OC)OCO3)CCN1C (racemic) . State its measured cell number.
// result 98.6

// query Provide only the value of recorded cell number for C[N+](C)(C)CCCCCC[N+](C)(C)C.[Br-].[Br-] [Hexamethonium bromide]
// result 104

// query Indicate the recorded cell number value for this compound: Cc1cc(NC(=O)CS(=O)(=O)c2cn(Cc3cc(Br)ccc3F)c3ccccc23)no1
// result 82.5

// query Tell me its cell number given COc1cc2c(cc1OC)C1C(=O)c3ccc4c(c3OC1CO2)C=CC(C)(C)O4 (stereo not drawn) as the entry.
// result 72.6

// query Give the reported cell number for this compound. Br.Br.NC(N)=NCCSSCCN=C(N)N [Guanidinoethyl disulfide dihydrobromide]
// result 100

// query Check the records and state cell number for CC(C[N+](C)(C)C)OC(N)=O.[Cl-] (stereo not drawn) [Bethanechol chloride]
// result 91.3

// query Complete the entry with cell number for N#Cc1c(NC(=O)c2cccc3ccccc23)sc2c1CCCC2
// result 62.6

// query Answer with reported cell number of COc1cc(C(O)CO)ccc1OS(=O)(=O)[O-].[K+] (stereo not drawn) [MHPG sulfate potassium]
// result 102

====

Can you tell me cell number for the items I'm about to list?
Tested on: HCC1569;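 note: TDF denotes transformed human dermal fibroblasts of mesenchymal origin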
Test: cell number relative to DMSO (% of DMSO); higher = more cells (less growth inhibition / toxicity)
Conditions: concentration: 10 µM; 24 h
Could you keep your reply to the number by itself?

// query Return value of cell number for input CC(C)(C)OC(=O)CN(Cc1ccc(Cl)cc1)Cc1ccc([N+](=O)[O-])s1 , no commentary.
// result 100

// query Please give measured cell number of the following entry: COc1ccc2[nH]cc(CCNC(C)=O)c2c1 [Melatonin]
// result 101

// query Specify cell number for Cl.c1ccc2c(c1)CCCC2C1=NCCN1 (stereo not drawn) [Tetrahydrozoline hydrochloride] and stop.
// result 101

// query Identify the reported cell number for the following entry. Cc1ccccc1N1C(=O)c2cc(S(N)(=O)=O)c(Cl)cc2NC1C (stereo not drawn) [Metolazone]
// result 104

// query Quick one: give measured cell number for Cc1ccc(NC2=CC(=O)c3sc(C)nc3C2=O)cc1
// result 27.9

// query Using the record for O=C(NOCC(O)CO)c1ccc(F)c(F)c1Nc1ccc(I)cc1F (stereo not drawn) , state its measured cell number.
// result 105

// query Look up and report measured cell number for this entry: CCCCCC(=O)C=CC1C(O)CC(=O)C1CC=CCCCC(=O)O (stereo not drawn) [15-keto-prostaglandin E2]
// result 100

// query # return recorded cell number for entry C[N+](C)(C)CCO.[Cl-] [2-hydroxy-N,N,N-trimethylethanaminium chloride]
// result 101

// query Consider the compound COC(=O)[C@H](Cc1ccc([N+](=O)[O-])cc1)NC(=O)c1cccc2ccccc12 [methyl (2S)-2-(1-naphthoylamino)-3-(4-nitrophenyl)propanoate] and give its recorded cell number.
// result 92.4

// query Supply reported cell number belonging to this compound: CC(C)(CO)Cc1cc(C(C)(C)C)c(O)c(C(C)(C)C)c1
// result 102

// query Give cell number for Cn1cc[nH]c1=S [Methimazole]
// result 107

// query Note down cell number recorded for CC[n+]1c(C=CN(C)c2ccccc2)n(-c2ccccc2)c2ccc(-c3nc4ccccc4s3)cc21.[I-] [Akt Inhibitor IV]
// result 38.7

// query Query cell number for CCC=CCC=CCC=CCC=CC=CC(O)CCCC(=O)O (racemic)
// result 106

// query Quote cell number reported for COc1ccc2[nH]c(S(=O)Cc3ncc(C)c(OC)c3C)nc2n1 (stereo not drawn) [Tenatoprazole] please.
// result 103

// query Give me measured cell number, please, for this compound: COc1ccc(-c2cc(=S)ss2)cc1 [Anethole-trithione]
// result 102

// query Please indicate cell number recorded for CN1CCN(CC(=O)N2c3ccccc3C(=O)Nc3cccnc32)CC1.Cl.Cl [Pirenzepine.2HCl]
// result 101

// query Given the compound O=c1[nH]c2ccccc2c2ccccc12 [6(5H)-Phenanthridinone] , write its reported cell number.
// result 100

// query Tell me its cell number given CC1C2CCC3C4CC=C5CC(N(C)C)CCC5(C)C4CCC32CN1C (stereo not drawn) [Conessine] as the entry.
// result 103

====

Tested on: TDF;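 note: TDF is a line of transformed human dermal fibroblasts of mesenchymal origin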
Assay: H1.0 immunofluorescence intensity relative to DMSO (% of DMSO); higher = stronger H1.0 induction, active = 120 or more
Settings: concentration: 10 µM; 24 h
Your response should consist of one outcome taken from active, inactive

// query Which outcome was assigned to CCC1(O)CC2CN(CCc3c([nH]c4ccccc34)C(C(=O)OC)(c3cc4c(cc3OC)N(C)C3C(O)(C(N)=O)C(O)C5(CC)C=CCN6CCC43C65)C2)C1.O=S(=O)(O)O (stereo not drawn) [Vindesine sulfate] in this test?
// result active

// query Name the outcome recorded for Nc1nc2ccccc2c2ccccc12 in the assay.
// result inactive

// query Per the assay record, what outcome was assigned to O=C(/C=C/c1cccnc1)NCCCCC1CCN(C(=O)c2ccccc2)CC1 ?
// result inactive

// query Recorded test outcome, item O=C1NC(=O)C(=Cc2ccc(-c3ccc(F)cc3O)o2)S1
// result inactive

// query For CC(C)(C)C(=O)C(Oc1ccc(Cl)cc1)n1ccnc1 (stereo not drawn) , which call appears in the assay record?
// result inactive

// query Please state the recorded outcome for this compound: CC(C=CC1=C(C)CCCC1(C)C)=CC=CC(C)=CC(=O)O [Retinoic Acid]
// result inactive

// query // outcome(item) with item = COc1cc2nc(N3CCN(C(=O)C4CCCO4)CC3)nc(N)c2cc1OC.Cl (stereo not drawn) [Terazosin hydrochloride]
// result inactive

// query What classification did CCOC(=O)[C@H](CCc1ccccc1)N[C@@H](C)C(=O)N1C(=O)N(C)C[C@H]1C(=O)O.Cl end up with in this test?
// result inactive

// query In this assay, the call recorded for Nc1ccn(C2OC(CO)C(O)C2(F)F)c(=O)n1 (stereo not drawn) was what?
// result active

// query Each compound tested received a call. Report the one for Nc1nccc(-c2c(-c3ccc(F)cc3)ncn2C2CCNCC2)n1 .
// result inactive

// query Assay outcome for CCC(C)C(CC)C(N)=O (stereo not drawn) [2-ethyl-3-methylpentanamide] : what was it?
// result inactive

// query Hi, sorry to bother you, what did the test record for C=C1C(=CC=C2CCCC3(C)C2CCC3C(C)CCCC(C)C)CC(O)CC1O (stereo not drawn) ?
// result inactive

// query For CCCCCCC=CCCCCCCCCCC(=O)O [11(Z)-Octadecenoic acid] , which call appears in the assay record?
// result inactive

// query Give the logged outcome of this assay for the following compound: CCCCCCCCCCCCCC=CC(O)C(CO)N(C)C (stereo not drawn)
// result inactive

// query Per the assay record, what outcome was assigned to CC=CCC=CCCC(=O)C1OC1C(N)=O (stereo not drawn) ?
// result inactive

// query Would you mind telling me which call this test gave CCC(C)C1OC2(CCC1C)CC1CC(CC=C(C)C(OC3CC(OC)C(OC4CC(OC)C(O)C(C)O4)C(C)O3)C(C)C=CC=C3COC4C(O)C(C)=CC(C(=O)O1)C34O)O2 (stereo not drawn) ?
// result inactive

// query Given Cc1ncc([N+](=O)[O-])n1CC(C)O (stereo not drawn) , state the outcome it received in this test.
// result inactive

// query I would be grateful if you could indicate the recorded call for CC(C)Cn1cnc2c(N)nc3ccccc3c21 .
// result inactive

// query Hi, do you know how COc1ccccc1OCC(O)CN1CCN(CC(=O)Nc2c(C)cccc2C)CC1.Cl.Cl (stereo not drawn) [Ranolazine dihydrochloride] came out in this test?
// result inactive

// query I would be grateful if you could indicate the recorded call for CN(C)CCC(CSc1ccccc1)Nc1ccc(S(=O)(=O)NC(=O)c2ccc(N3CCN(Cc4ccccc4-c4ccc(Cl)cc4)CC3)cc2)cc1[N+](=O)[O-] (stereo not drawn) .
// result inactive

// query Short answer needed: outcome of this test for CCCCCC(O)C=CC1C(O)CC(=O)C1CCCCCCC(=O)O (stereo not drawn) [Prostaglandin E1] ?
// result inactive

// query Check the results log: what was the call for CC(CSC(=O)c1ccccc1)C(=O)N1CC(Sc2ccccc2)CC1C(=O)[O-].CC(CSC(=O)c1ccccc1)C(=O)N1CC(Sc2ccccc2)CC1C(=O)[O-].[Ca+2] (stereo not drawn) ?
// result inactive

// query How was CCCC(CCC)C(=O)NO [N-hydroxy-2-propylpentanamide] classified in this test?
// result inactive

// query Give the logged outcome of this assay for the following compound: CCCCCCCCCCCCCCCCCCCCC(=O)O
// result inactive

// query GET /call?item= COc1ccc2cc(CCC(C)=O)ccc2c1 returns the recorded outcome of this test.
// result inactive

// query // return assay outcome for CCC(=O)N1CCN(C(=O)c2ccccc2)CC1
// result inactive

// query Look up the recorded call for N#CCNC(=O)c1ccc(-c2ccnc(Nc3ccc(N4CCOCC4)cc3)n2)cc1 in this test.
// result active

// query Per the assay record, what outcome was assigned to CC1(C)CCCC(C)(C2CCC3(C)C2C(O)CC2C4(C)CCC(O)C(C)(C)C4C(O)CC23C)O1 (stereo not drawn) ?
// result inactive

// query For this compound, state the assay outcome: Cl.O=C(CCCN1CCC(O)(c2cccc(C(F)(F)F)c2)CC1)c1ccc(F)cc1 [Trifluperidol hydrochloride]
// result inactive

// query Look up the recorded call for O=C1CC(c2ccc(O)c(O)c2)Oc2cc(OC3OC(CO)C(O)C(O)C3O)cc(O)c21 (stereo not drawn) [Eriodictyol-7-O-glucoside] in this test.
// result inactive

// query Test call, this compound: COc1cc(NC(C)CCCN)c2ncccc2c1 (stereo not drawn)
// result inactive

// query Could you please tell me the result logged for N#CC(=Cc1c[nH]c2ccccc12)C(=O)c1ccc(O)c(O)c1 in this assay?
// result inactive

// query Which outcome was entered for the compound CC(=O)NCCc1c(Cc2ccccc2)[nH]c2ccccc12 [N-[2-(2-benzyl-1H-indol-3-yl)ethyl]acetamide] in this test?
// result inactive
